- Test system: human TLR7 (Homo sapiens (Human), UniProt Q9NYK1)
- Sequence (Q9NYK1 27-1049): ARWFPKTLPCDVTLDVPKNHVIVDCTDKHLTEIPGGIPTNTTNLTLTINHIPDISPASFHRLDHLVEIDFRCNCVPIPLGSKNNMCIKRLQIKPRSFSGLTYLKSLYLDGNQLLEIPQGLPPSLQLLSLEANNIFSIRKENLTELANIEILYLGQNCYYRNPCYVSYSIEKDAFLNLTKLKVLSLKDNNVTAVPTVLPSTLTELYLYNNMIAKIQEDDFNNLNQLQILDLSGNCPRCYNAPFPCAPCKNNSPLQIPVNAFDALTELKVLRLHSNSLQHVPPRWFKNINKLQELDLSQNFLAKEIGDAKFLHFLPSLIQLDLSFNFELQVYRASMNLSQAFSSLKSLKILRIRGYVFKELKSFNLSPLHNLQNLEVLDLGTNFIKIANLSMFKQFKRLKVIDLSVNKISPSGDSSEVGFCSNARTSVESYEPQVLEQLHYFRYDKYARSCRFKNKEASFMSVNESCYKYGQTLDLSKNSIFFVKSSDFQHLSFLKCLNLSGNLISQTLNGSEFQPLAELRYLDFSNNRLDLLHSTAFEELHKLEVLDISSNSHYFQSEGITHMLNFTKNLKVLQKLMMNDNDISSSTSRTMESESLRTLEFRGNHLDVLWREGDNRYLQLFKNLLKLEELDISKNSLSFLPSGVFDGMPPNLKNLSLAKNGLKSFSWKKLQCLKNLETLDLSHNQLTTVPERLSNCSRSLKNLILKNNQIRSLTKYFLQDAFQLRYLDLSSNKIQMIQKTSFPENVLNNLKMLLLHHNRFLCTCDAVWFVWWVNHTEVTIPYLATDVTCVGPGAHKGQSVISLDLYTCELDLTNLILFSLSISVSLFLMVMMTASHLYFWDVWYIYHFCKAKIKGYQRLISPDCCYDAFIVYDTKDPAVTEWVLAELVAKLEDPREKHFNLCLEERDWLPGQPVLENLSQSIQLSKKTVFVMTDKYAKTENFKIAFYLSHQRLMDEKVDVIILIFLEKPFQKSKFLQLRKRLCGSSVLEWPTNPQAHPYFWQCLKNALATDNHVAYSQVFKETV
- Assay protocol: TLR7 inhibition reporter assay (HEK-Blue SEAP)
- Condition set: HEK-Blue cells overexpressing human TLR7, gardiquimod 7.5 μM stimulation
pIC50: −log10 of the molar value.
# binarize pIC50: threshold 9 inclusive, high side t, low side f

Sample answers from the record:
* COc1cc(-c2[nH]c3cnc(N4CCC(NC(C)C(C)C)CC4)cc3c2C(C)C)cn2ncnc12 (stereo not shown) [Example 313] | f
* Cc1cc(-c2[nH]c3cnc(C4CCC(N5CC6(COC6)C5)CC4)c(F)c3c2C(C)C)cn2ncnc12 (stereo not shown) [Example 133] | t

Now, please, on to the next compound.
Please check the record COCCNC1CCC(c2cc3c(C(C)C)c(-c4cn5ncnc5c(C)c4C)[nH]c3cn2)CC1 (stereo not shown) [Example 347] and state if its pIC50 is at or above 9. f

* * *

- Test system: human TLR7 (Homo sapiens (Human), UniProt Q9NYK1)
- Assay protocol: TLR7 inhibition reporter assay (HEK-Blue SEAP)
- Condition set: HEK-Blue cells overexpressing human TLR7, gardiquimod 7.5 μM stimulation
Readout label: pIC50
Numbers only, as −log10 of the molar value.

Some entries whose results are on file:
* COc1cc(-c2[nH]c3cnc(C4CCC(N(C)CC(=O)N(C)C)CC4)c(F)c3c2C(C)C)cn2ncnc12 (stereo not shown) | 8.52
* COc1cc(-c2[nH]c3cnc(N4CCN(CC(F)(F)F)CC4)c(F)c3c2C(C)C)cn2ncnc12 | 8.42
* COc1cc(-c2[nH]c3cnc(C4CCC(NCC(C)(C)OC)C4)cc3c2C(C)C)cn2ncnc12 (stereo not shown) [Example 179] | 7.70
* CCN(C)C1CCN(c2ncc3[nH]c(-c4cc(OC)c5ncnn5c4)c(C(C)C)c3c2C)CC1 | 9.59
* CNC(=O)CN1CCC(c2cc3c(C(C)C)c(-c4cn5ncnc5c(C)c4C)[nH]c3cn2)CC1 [Example 26] | 8.51
* CCN(C)C1CCC(c2cc3c(C(C)C)c(-c4cc(OC)c5ncnn5c4)[nH]c3cn2)CC1 (stereo not shown) [Example 316] | 8.02

Below: the item to evaluate.
Complete the entry with pIC50 for "Cc1c(-c2[nH]c3cnc(N4CCN(CC5(C)COC5)CC4)c(F)c3c2C(C)C)cn2ncnc2c1C" 7.82

* * *

- Test system: human TLR7 (Homo sapiens (Human), UniProt Q9NYK1)
- Assay protocol: TLR7 inhibition reporter assay (HEK-Blue SEAP)
- Condition set: HEK-Blue cells overexpressing human TLR7, gardiquimod 7.5 μM stimulation
Readout label: pIC50
Give bare numbers, as −log10 of the molar value.

Some entries whose results are on file:
• COc1cc(-c2[nH]c3cnc(N4CC5(CN(CC6(C)COC6)C5)C4)c(F)c3c2C(C)C)cn2ncnc12 = 8.02
• Cc1c(-c2[nH]c3cnc(N4CC5(C4)CN(C4CCN(C(C)C)CC4)C5)c(F)c3c2C(C)C)cn2ncnc2c1C = 8.08

// batch mode: one pIC50 value per listed entry
1. COc1cc(-c2[nH]c3cnc(C4CCC(NCC5(C)COC5)C4)cc3c2C(C)C)cn2ncnc12 (stereo not shown) [Example 276]
2. Cc1cc(-c2[nH]c3cnc(C4CCC(NC5(C)COC5)CC4)c(F)c3c2C(C)C)cn2ncnc12 (stereo not shown) [Example 231]
3. Cc1cc(-c2[nH]c3cnc(N4CCC(NCC5(C)COC5)CC4)c(F)c3c2C(C)C)cn2ncnc12
4. COc1cc(-c2[nH]c3cnc(C4CCC(NC5COC5)C4)cc3c2C(C)C)cn2ncnc12 (stereo not shown) [Example 93]
5. Cc1c(-c2[nH]c3cnc(N4CCN(CC5CC5)CC4)c(F)c3c2C(C)C)cn2ncnc2c1C

1: 8.11; 2: 8.23; 3: 9.12; 4: 7.74; 5: 8.23
